studySystem: Follistatin (Homo sapiens)
procedureDetails: follistatin binders on small-molecule microarrays, primary screen, biochemical, small-molecule microarray, 635/667 nm fluorescence (AID 1132)
conditionInfo: FST binding, 635 nm fluorescence, higher = more signal

- compound: "O=C1C[C@@](C(=O)NCCN2CCOCC2)(c2ccc([N+](=O)[O-])cc2)[C@@H](c2ccc(CO)cc2I)N1CC12CC3CC(CC(C3)C1)C2"
  composite z-score: 1.19
- compound: "COc1ccc(CCNC(=O)[C@@]2(C)c3ccccc3C(=O)N(C(C)C)[C@H]2c2ccc(CO)cc2)cc1"
  composite z-score: 0.674
- compound: "CCC(CC)C(O)C1C=CC2C(=O)NC(=O)C2N1Nc1ccccn1 (stereo not drawn)"
  composite z-score: 0.872
- compound: "CCC(CC)C(O)C1C=CC2C(=O)NC(=O)C2N1Nc1ccc(Cl)cc1Cl (stereo not drawn)"
  composite z-score: 1.14
- compound: "CC1CC/C=C\\[C@H]2OC34C=CCN(C(C)(C)C)C(=O)[C@H]3N(CCO)C(=O)[C@@H]4C2C(=O)O1 (stereo partly drawn)"
  composite z-score: -0.352
- compound: "COC(=O)c1c(CC[C@@H](CO)NC(=O)NCCn2cc(C3(O)CCCC3)nn2)oc(C(C)=O)c1C(=O)OC"
  composite z-score: -0.273
- compound: "O[C@@H](Cc1ccccc1)[C@H]1C2C=CCCC=C2CN1Cc1cccc(Cl)c1 (stereo partly drawn)"
  composite z-score: 1.24
- compound: "C=CCC(OC(C)=O)[C@@H]1[C@@H](N(Cc2cc3ccccc3o2)C(=O)c2cccc3ccccc23)c2cc(OCCCO)ccc2N1C(=O)c1ccc(-c2ccccc2)cc1 (stereo partly drawn)"
  composite z-score: 0.791

* * *

procedureDetails: small-molecule microarray binders of probe aShh, primary screen, biochemical, biotinylated probe, 635/667 nm fluorescence (AID 1114);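 further: probe is biotin-labelled aShh protein from a stem cell growth factor screen; measures binding of labelled protein to compounds printed on the slide; score merges feature fluorescence at 667 nm with signal-to-noise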
conditionInfo: higher = more signal
In this section we review reported composite z-score values for a set of compounds.

- compound: "CCCC[C@@H]1C[C@H]1[C@@H](NC(=O)c1ccco1)c1ccccc1C(F)(F)F"
  composite z-score: 2.6
- compound: "CCCC[C@@H]1C[C@H]1[C@@H](NC(=O)C(C)(C)C)c1ccc(C(F)(F)F)cc1"
  composite z-score: 0.102
- compound: "COc1cc(NN2C(C(O)c3ccco3)C=CC3C(=O)N(c4ccccc4)C(=O)C32)cc(OC)c1OC (stereo not given)"
  composite z-score: -0.29
- compound: "NC(=O)NCC#Cc1ccc2c(c1)[C@]1(C(=O)N2)[C@H](C(=O)Nc2nc3ccccc3s2)[C@H]2C(=O)O[C@H](c3ccccc3)[C@H](c3ccccc3)N2[C@@H]1c1ccccc1OCCO"
  composite z-score: -0.0773
- compound: "Cc1ccc(N2C(=O)c3ccccc3[C@@H](C(=O)NC3CC3)[C@@H]2c2ccc(CO)cc2)nc1"
  composite z-score: -0.0866
- compound: "COc1ccc(CCNC(=O)[C@@H]2c3ccccc3C(=O)N(Cc3ccccc3Cl)[C@H]2c2ccc(CO)cc2)cc1"
  composite z-score: 0.0611
- compound: "CCCCN1CC=CC23O[C@@H]4C=CCCOC(=O)C4[C@H]2C(=O)N(CCCCCCO)[C@@H]3C1=O (stereo not given in full)"
  composite z-score: -0.117
- compound: "CCCC[C@H]1OB(O)C[C@H]2C1=C(COC)Cn1c(=O)n(-c3ccccc3)c(=O)n12"
  composite z-score: -0.0977
- compound: "CN(C)CCCC[C@@H]1NC(=O)[C@H]2C[C@@H](C(=O)NCCCCCCN)[C@@H](c3ccc(O)cc3)N2C1=O"
  composite z-score: 0.109
- compound: "COc1cccc(-c2cccc(=O)o2)c1"
  composite z-score: 0.475
- compound: "C=CCOC(=O)[C@H]1[C@@H]2C(=O)O[C@@H](c3ccccc3)[C@@H](c3ccccc3)N2[C@@H](c2ccc(OCCOC(=O)[C@H]3C[C@H]4C(=O)N[C@@H](CCCCNC(C)=O)C(=O)N4[C@H]3c3cccc(OCCO)c3)cc2)[C@]12C(=O)Nc1ccccc12"
  composite z-score: 0.13
- compound: "O[C@@H](Cc1ccccc1)[C@H]1C2C=CCCC=C2CN1Cc1cccc(Cl)c1 (stereo not given in full)"
  composite z-score: -0.138
- compound: "COc1ccc([Si](C)(C)[C@@H]2[C@@H](CC(=O)N3CCC[C@H]3CO)O[C@]3(C(=O)N(c4ccccc4)c4ccccc43)[C@H]2C)cc1"
  composite z-score: 0.0328
- compound: "NCCCCCCNC(=O)[C@@H]1C[C@@H]2C(=O)NCC(=O)N2[C@@H]1c1ccc(O)cc1"
  composite z-score: 0.0469
- compound: "C[N+](C)(C)CCCCNC(=O)[C@@H]1C[C@@H]2C(=O)N[C@@H](Cc3ccccc3)C(=O)N2[C@@H]1c1cccc(OCCO)c1"
  composite z-score: -0.0146

* * *

z-score values by entry
procedureDetails: PSAC antagonists in infected red cells, primary screen, cell-based, P. falciparum Indochina, OD700, 1 h (AID 1154)
conditionInfo: P. falciparum Indochina infected RBC osmotic lysis, higher = more signal, called active from +8 up or from −8 down
observedProperty: z-score

- compound: "[N-]=[N+]=NCc1ccccc1C[C@]1(C(=O)N2CCCCC2)N=C(c2ccc(OCCCO)cc2)O[C@H]1c1ccccc1N=[N+]=[N-]"
  experimentalResult: 30.8
- compound: "CCOC(=O)C[C@H]1[C@H](OC(=O)c2ccc(C(=O)c3ccccc3)cc2)[C@@H](NC(=O)c2ccccc2)c2cc(OCCCO)ccc2N1C(=O)Cc1ccc(OC)cc1"
  experimentalResult: 3.37
- compound: "C=CCC(OC(C)=O)[C@@H]1[C@@H](N(Cc2ccc(-c3ccccc3)cc2)C(=O)c2cccc3ccccc23)c2cc(OCCCO)ccc2N1C(=O)c1ccc(-c2ccccc2)cc1 (stereo partly specified)"
  experimentalResult: 0.353
- compound: "O=C1C[C@@](C(=O)NCCN2CCOCC2)(c2ccc([N+](=O)[O-])cc2)[C@@H](c2ccc(CO)cc2)N1CC12CC3CC(CC(C3)C1)C2"
  experimentalResult: 4.51
- compound: "COc1ccc([Si](C)(C)[C@@H]2[C@@H](CCO)O[C@]3(C(=O)N(Cc4ccc(N(C=O)c5ccccc5)cc4)c4ccccc43)[C@H]2C)cc1"
  experimentalResult: 4.33
- compound: "C=CCN1C(=O)[C@@]2(Cc3ccccc31)N=C(c1ccc(OCCCO)cc1)O[C@H]2c1ccccc1"
  experimentalResult: 14.6

* * *

Test system: Chordin-like protein 2 (CHRDL2)
procedureDetails: CHRDL2 small-molecule binders, primary screen, biochemical, small-molecule microarray, 635 nm fluorescence (AID 1126);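 further: printed compound slides probed with Chrdl2 protein at 4 µg/mL for 1 h at 4 C; score merges 667 nm emission intensity with signal to noise over three replicate slides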
conditionInfo: small-molecule microarray binding, fluorescence 635 nm; higher = more signal
So basically: composite z-score at -0.2 or higher? That is label 1. Lower than -0.2? That is label 0.

- molecule: "C=C(CC1([C@@H](NP(=O)(c2ccccc2)c2ccccc2)[C@H]2C[C@@H]2CCCC)CC1)c1ccccc1"
  group: "label 0"
- molecule: "CCCCCCc1nc(-c2ccc(OC)nc2)cc2c1[Si](C(C)C)(C(C)C)O[C@H]2c1ccccc1"
  group: "label 1"
- molecule: "COCCOC(=O)N1C(=O)[C@@]2(c3cc(C#CCC(C(=O)OC)C(=O)OC)ccc31)[C@H](c1ccccc1OCCO)N1[C@H](c3ccccc3)[C@H](c3ccccc3)OC(=O)[C@H]1[C@@H]2C(=O)NC[C@H](O)c1ccccc1"
  group: "label 1"
- molecule: "C=CCNC(=O)[C@@H]1[C@H]2C(=O)O[C@H](c3ccccc3)[C@H](c3ccccc3)N2[C@H](c2ccccc2OCCO)[C@@]12C(=O)N(C(=O)OCCOC)c1ccccc12"
  group: "label 1"
- molecule: "COc1ccc(CCNC(=O)[C@@]2(Sc3ccc(C)cc3)CC(=O)N(C3Cc4ccccc4C3)[C@@H]2c2ccc(CO)cc2I)cc1"
  group: "label 0"
- molecule: "Cc1ccc(S[C@]2(C(=O)O)CC(=O)N(C(C)C)[C@@H]2c2ccc(CO)cc2I)cc1"
  group: "label 1"
- molecule: "COCCOC(=O)N1C(=O)[C@@]2(c3cc(C#Cc4ccc(OC)cc4)ccc31)[C@H](c1ccccc1OCCO)N1[C@H](c3ccccc3)[C@H](c3ccccc3)OC(=O)[C@H]1[C@@H]2C(=O)NC[C@H](O)c1ccccc1"
  group: "label 1"
- molecule: "NC(=O)[C@@H]1[C@H]2C(=O)O[C@H](c3ccccc3)[C@H](c3ccccc3)N2[C@H](c2ccc(O)cc2)[C@@]12C(=O)Nc1ccccc12"
  group: "label 0"
- molecule: "CC(C)N1C(=O)C[C@@](C(=O)NCC(F)(F)F)(c2ccc([N+](=O)[O-])cc2)[C@H]1c1ccc(CO)cc1"
  group: "label 1"
- molecule: "COC(=O)[C@]1(CCC(=O)OC(C)(C)C)N=C(c2ccc(OCCCO)cc2)O[C@@H]1c1ccccc1CN=[N+]=[N-]"
  group: "label 0"
- molecule: "O=C1C[C@@](C(=O)NC2CC2)(c2ccc([N+](=O)[O-])cc2)[C@@H](c2ccc(CO)cc2I)N1C1CCCCC1"
  group: "label 1"
- molecule: "C=C(/C(=C/C[C@H](OC(C)=O)c1ccc(CO)o1)c1cc(C(=O)OC)ccc1OC)C(C)C"
  group: "label 0"
- molecule: "CN(C)CCCC[C@@H]1NC(=O)[C@@H]2C[C@H](C(=O)NCCCCCCN)[C@H](c3cccc(OCCO)c3)N2C1=O"
  group: "label 1"
- molecule: "O=C1NC(=O)C2C1C=CC(C(O)c1cccs1)N2Nc1ccc(Cl)cc1Cl (stereo not given)"
  group: "label 0"
- molecule: "CCCCCCc1nc(-c2cc(C)c(OC)c(C)c2)cc2c1[Si](C(C)C)(C(C)C)OC2"
  group: "label 1"
